Documented apparent KD of MS2 coat protein across a set of sequences
tested on: MS2 coat protein; assay: apparent KD of MS2 coat protein; designed switch direction (-1 OFF switch, 1 ON switch): -1; higher = weaker reporter binding; details: input ligand: FMN 200 uM

>  <Polymer Sequence>
AGAUCACAUGAGGAUCACCCAUGUGAGGAUAUGGACUGAAGAGCUUCGGCUCUUCAGUCCAGAAGGCACAAUGA [EX1 #43] (Eterna round: R97, puzzle: Exclusion 1)

>  <Unit Abbrev>
nM

>  <apparent KD of MS2 coat protein>
40.7

$$$$
>  <Polymer Sequence>
AAAUAGCAUGAGGAUAUUGAACUGUAUUCAGUACGAGAAGGCAUGACAUGAGGAUCACCCAUGUUUUGUUGGGA [EX6 #5] (Eterna round: R97, puzzle: Exclusion 6)

>  <Unit Abbrev>
nM

>  <apparent KD of MS2 coat protein>
126

$$$$
>  <Polymer Sequence>
AACAGGUCAGGAUAUACAUGAGGAUCACCCAUGUAGACUUCUAGUCUAUCGUGACUGUGUAGAAGGGACCUGAA [Exclusion 3 (MOD of #98 Marzena11)] (Eterna round: R97, puzzle: Exclusion 3)

>  <Unit Abbrev>
nM

>  <apparent KD of MS2 coat protein>
146

$$$$
>  <Polymer Sequence>
AAACACGGAGGAUAUGGUCACUAGGACAUGAGGAUCACCCAUGUGGGAGUGCUAGUGCUACCAGAAGGUUGAAGUC [Eternabot (L1) Solution 54] (Eterna round: R97, puzzle: Exclusion 5)

>  <Unit Abbrev>
nM

>  <apparent KD of MS2 coat protein>
66.6

$$$$
>  <Polymer Sequence>
CUUUGCACGCUGCGGUCCUACAUGAGGAUCACCCAUGUGGUCUGGUGGCGUGGGUCGCCGGACUUGGCUCGUCUUGU [salish99_S_TOV1_R5_041] (Eterna round: R97, puzzle: Sensor, turn-off variant 1)

>  <Unit Abbrev>
nM

>  <apparent KD of MS2 coat protein>
18.2

$$$$

---

test system: MS2 coat protein; assay: apparent KD of MS2 coat protein; designed switch direction (-1 OFF switch, 1 ON switch): -1; higher = weaker reporter binding; settings: Eterna round: R95; input ligand: FMN 200 uM
Documented apparent KD of MS2 coat protein across a set of sequences

>  <Polymer Sequence>
UUGCUACCUUGGUACUCUACAAGCUUUUUGCUCGUUUUAACAUGAGGAUCACCCAUGUCUAGUGGAUCUGAUCGGGU [JL ViennaUCT Isreen mod 3] (puzzle: Sensor v3, turn-off variant 2)

>  <apparent KD of MS2 coat protein [nM]>
87.4

$$$$
>  <Polymer Sequence>
AGUACUAACACGAAAGUGUUCGUACAAUAAGCUUGUGAAACAUGAGGAUCACCCAUGUCCUCAUAAGCUCGUCUUAU [salish99_TOv2_r3_037] (puzzle: Sensor v3, turn-off variant 2)

>  <apparent KD of MS2 coat protein [nM]>
16.6

$$$$
>  <Polymer Sequence>
CAUUAACAUGAGGAUCACCCAUGUGAGGAUAUGGAUACAUAAUACUACUACAUAAAUACCAGAAGGCGCAUACU [Maybaline] (puzzle: Exclusion 1)

>  <apparent KD of MS2 coat protein [nM]>
31.4

$$$$

---

test system: K4 kissing-loop RNA reporter; assay: apparent KD of K4 kissing-loop reporter; higher = weaker reporter binding; settings: Eterna round: R107; input ligand: none;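 also: bound reporter read as fluorescence of individual clusters on recovered sequencing chips by microscopy, with normalized cluster intensities fitted with a binding model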
Documented apparent KD of K4 kissing-loop reporter across a set of sequences

>  <Polymer Sequence>
UGUAUGUGAUUUGAUACCAGACCAGCUGGUGGUACCUGAGUGAUGUUCGGGAUGGUUUGGGUCCCUUGGCAGCAAAUCGCAUACU [KL-SSTheoB20]

>  <apparent KD of K4 kissing-loop reporter, nM>
164

$$$$
>  <Polymer Sequence>
UGGUUAAGCAGUGAUGUUGCAAGUGAUGAUACCAGUUAAGAAGAGAACCCUUGGCAGCAUAAAGUGCGCUCUGAUGAGUGUGCUU [whbob_SS_Theo_A_w55]

>  <apparent KD of K4 kissing-loop reporter, nM>
146

$$$$
>  <Polymer Sequence>
GCGGCCCAGCCGGAUACCAGUGACCCGCUGGGAACCGCGGGCCCAGAGUGAUGUUCGGGACACCCUUGGCAGCCGCCUGGGACGC [#2 Same State - Theophylline B Attempt #17 (HarryS)]

>  <apparent KD of K4 kissing-loop reporter, nM>
546

$$$$
>  <Polymer Sequence>
AUAAACUUGCAGUGAUGUUGCAAGUAAGACUAGGAUAUCAGGAAACUGAGAAGGAGUCAUCUCCUUCACUUGCAACUAGGAGGAG [[K1]-[K2]-[F1]-[F2]-[F]'-[K]'-[F]''_Design6]

>  <apparent KD of K4 kissing-loop reporter, nM>
143

$$$$
>  <Polymer Sequence>
GGGUAUUACGGAGGAUAUGCACUGAGGAGGAGAAUAUAGUGAUGUUAUAUAAGAGGAAGGAGAAGAGUAGAAGGCCGUGGUGUUU [SSFMNB.J]

>  <apparent KD of K4 kissing-loop reporter, nM>
170

$$$$
>  <Polymer Sequence>
CUGUAUCAUAUUGAUACCAGAGAAAGAACCAGUGAUGUUGGAAAAGACGAAUAAAUUAUACUCCCUUGGCAGCGGAAAUGAACAG [Totally accidental]

>  <apparent KD of K4 kissing-loop reporter, nM>
75.8

$$$$
>  <Polymer Sequence>
GACAGUCGGUGUUAAUGACAGUUACGCGAUACCAGCGAAACAGUACGCCCUUGGCAGCGCAGUGAUGUUGCGCGCCUAGUGUGGU [Esbiceve]

>  <apparent KD of K4 kissing-loop reporter, nM>
101

$$$$
>  <Polymer Sequence>
UGACUGGACUGAAGGAGCGCGCGAGACAAAGUCUCGAACUCUUAGUGAUGUUAGGAAAUAACGCAGGUAGGUCGCAGUCUAGUCU

>  <apparent KD of K4 kissing-loop reporter, nM>
332

$$$$
>  <Polymer Sequence>
UAAAUUAUCUGAAGGAGCGUGAAAUAAUAUUAAACAUAACAACCCAGUGAUGUUGGGUUAUCACAGGUAGGUCGCAGAUGUAGAU [Same State Arginie B GF 24]

>  <apparent KD of K4 kissing-loop reporter, nM>
98

$$$$
>  <Polymer Sequence>
CCUGCGGCUUCCGGCGGGCCCGAUUUAUAAAAGGAUAUGUGCGUACACAGAAGGUUUAACGAGGGACCGAGAGUGAUGUUCUCCU [theeternabot_sameState_KL_FMN_A_33]

>  <apparent KD of K4 kissing-loop reporter, nM>
316

$$$$
>  <Polymer Sequence>
UUGGCUGGACGGGAUACCAGCCAAAUCGUGUGCUUAGGAUGUCUAAGAGCCAGUGAUGUUGGCCCUUGGCAGCCCUCCUAGCUUG [Ordigear]

>  <apparent KD of K4 kissing-loop reporter, nM>
138

$$$$
>  <Polymer Sequence>
AACUCUCAGGCAGCCGAGUGAUGUUCGGCCCGAGGACCGGUACGGCCGCCACUCGGGCCUGAGAGAGGUUAUCAAAGAUAGCCAA [#01 K4 Tryptophan A Same State]

>  <apparent KD of K4 kissing-loop reporter, nM>
89.8

$$$$

---

test system: MS2 coat protein; test: apparent KD of MS2 coat protein; designed switch direction (-1 OFF switch, 1 ON switch): -1; higher = weaker reporter binding; conditions: input ligand: FMN 200 uM
Assign classes using reported apparent KD of MS2 coat protein values and the ranges lower band = under 30 nM, central band = from 30 nM up to 50 nM, upper band = 50 nM and over, please.

>  <Polymer Sequence>
CUAGCGAUUGUAGGAUAUCGGACUGUUUCAGUCUGAGAAGGACAUGAGGAUCACCCAUGUGAAGCAACGUGAGUUGCACGCUAG [JL ENG1 3.83] (Eterna round: R96, puzzle: Exclusion NG 1)

>  <Class Name>
central band

$$$$
>  <Polymer Sequence>
CUGUUUUUCGCAGGAUAUGCUCCUCCAUUAUUUGCAGAAGGGCGUUGAACAUGAGGAUCACCCAUGUAUGGAAAUGACUAUUGC [JR_ExcNG1_Sub068] (Eterna round: R96, puzzle: Exclusion NG 1)

>  <Class Name>
lower band

$$$$
>  <Polymer Sequence>
ACAAGUUUUUAGAUUCUUAACAUGAGGAUCACCCAUGUGCUCGUCUUGUUUGUACUAUCACCGCCGGUGAUAGUACA (Eterna round: R97, puzzle: Sensor, turn-off variant 1)

>  <Class Name>
upper band

$$$$
>  <Polymer Sequence>
AUCAGCUCGUGAGGAUAUACAUGAGGAUCACCCAUGUGGUCAAUAGCAGCUUCGGCUGCAUACAUGUAGAAGGCACGAGCUGAU [ENG2/7-A2] (Eterna round: R96, puzzle: Exclusion NG 2)

>  <Class Name>
central band

$$$$
>  <Polymer Sequence>
CCUGGGUCAUCUCCCAGGAACAACAUGAGGAUCACCCAUGUCUAGGAUAUCCACCAGUCAAUAAAGGAGAAGGAGACGGUGGUU [Onlaxe] (Eterna round: R96, puzzle: Exclusion NG 3)

>  <Class Name>
lower band

$$$$
>  <Polymer Sequence>
GGAAUGUAAGGAUAUCCGAAAGGCGAGCGAAAGCGAGCAAAGGAGAAGGUACAUGAGGAUCACCCAUGUAAGGG [AK-MS2ROC-r4-exclusion4-11.3] (Eterna round: R97, puzzle: Exclusion 4)

>  <Class Name>
upper band

$$$$
>  <Polymer Sequence>
UUAAUUAGCAGACUAAUACCUCACAUGAGGAUCACCCAUGUGCAGGAUAUCAGCUCGUGUAGAGCUGAGAAGGGCACUGUCUGC [ExNG3/12-A3] (Eterna round: R96, puzzle: Exclusion NG 3)

>  <Class Name>
lower band

$$$$
>  <Polymer Sequence>
CGUAGCAAUGUGAGGAUAUCUAGAGCUUCGGCUCUAGAGAAGGCACAUGAGGAUCACCCAUGUGAUUAGCUACG [BmEx4/9-B1] (Eterna round: R97, puzzle: Brourd's mod of Exclusion 4)

>  <Class Name>
upper band

$$$$
>  <Polymer Sequence>
GACAUGUGAGGAUAUUGCAUAUAGUUAUAAGUUCAGGGCGGCAAGAAGGCACAUGAGGAUCACCCAUGUACCUU [Eternabot (L2) Solution 81] (Eterna round: R97, puzzle: Exclusion 4)

>  <Class Name>
lower band

$$$$
>  <Polymer Sequence>
CGAUCGGUAGGAUAUACAUGAACCUUGGUUGUGAGGCCUAAACAUGAGGAUCACCCAUGUAGAAGGACCUCGUA [EX2 C.10] (Eterna round: R97, puzzle: Exclusion 2)

>  <Class Name>
lower band

$$$$
>  <Polymer Sequence>
ACAAUGUUAGGAUAUCUGACAACUAGCCUCGGCUAGUCGAAAGAGAAGGAACAUGAGGAUCACCCAUGUAGAUC [EX4 #71] (Eterna round: R97, puzzle: Exclusion 4)

>  <Class Name>
upper band

$$$$
>  <Polymer Sequence>
AAAAGAACAUGAGGAUCACCCAUGUGAACCUUCGUUCGACCUCAGGAUAUCCGCCACCGUCCGCAGGAGAAGGGAGGUAAAAUA [Quraa] (Eterna round: R96, puzzle: Exclusion NG 3)

>  <Class Name>
upper band

$$$$
>  <Polymer Sequence>
AAAUAGGUAGGAUAUACAUGAGGAUCACCCAUGUGCUGCCGCGCGUCAAUCUCUUCACGUAGAAGGGCCCAGAC [Reveara] (Eterna round: R97, puzzle: Exclusion 3)

>  <Class Name>
lower band

$$$$
>  <Polymer Sequence>
GCGCACCUACCAAAAGGUAGGUCCACAUGAGGAUCACCCAUGUAGGAUAUCGAUUGCUUUGCAGUCGAGAAGGACAUGAUGCGC [JL ENG3 3.80 Mod 10] (Eterna round: R96, puzzle: Exclusion NG 3)

>  <Class Name>
upper band

$$$$
>  <Polymer Sequence>
GCACUGGCAGGAUAUACAUGAGGAUCACCCAUGUGAUCCCUUAGGUACAAAAGUACAAGUAGAAGGGCCUGUGC [Omei Ex3 Model Bachelor's Dilema v44] (Eterna round: R97, puzzle: Exclusion 3)

>  <Class Name>
upper band

$$$$
>  <Polymer Sequence>
UUAUUAUAUGUAGGAUAUGCAUAUUGUUGUUAUGCAGAAGGACAUGAGGAUCACCCAUGUAUAUUGUUGUUGUAUAUUAUAUAU [Title] (Eterna round: R96, puzzle: Exclusion NG 1)

>  <Class Name>
central band

$$$$
>  <Polymer Sequence>
AAGUAACAUGAGGAUCACCCAUGUUAGGAUAUCUCGGCCACAGGAUCCCUGUGAAGCCAGAGAAGGAGCGGGUG [Ceraso] (Eterna round: R97, puzzle: Exclusion 1)

>  <Class Name>
upper band

$$$$
>  <Polymer Sequence>
AACGUACGUCGAGGAUAUGACGAGAAAUAUGAGUCAGAAGGCGACUGGUACAUGAGGAUCACCCAUGUUGCGACCAUGUGGCUU [Eternabot solution 23] (Eterna round: R96, puzzle: Exclusion NG 1)

>  <Class Name>
upper band

$$$$
